# Target System: human recombinant GST cleaved CSNK1D (Homo sapiens, UniProt P48730)
# Construct: GST (cleaved yes)
# Sequence (P48730 whole entry): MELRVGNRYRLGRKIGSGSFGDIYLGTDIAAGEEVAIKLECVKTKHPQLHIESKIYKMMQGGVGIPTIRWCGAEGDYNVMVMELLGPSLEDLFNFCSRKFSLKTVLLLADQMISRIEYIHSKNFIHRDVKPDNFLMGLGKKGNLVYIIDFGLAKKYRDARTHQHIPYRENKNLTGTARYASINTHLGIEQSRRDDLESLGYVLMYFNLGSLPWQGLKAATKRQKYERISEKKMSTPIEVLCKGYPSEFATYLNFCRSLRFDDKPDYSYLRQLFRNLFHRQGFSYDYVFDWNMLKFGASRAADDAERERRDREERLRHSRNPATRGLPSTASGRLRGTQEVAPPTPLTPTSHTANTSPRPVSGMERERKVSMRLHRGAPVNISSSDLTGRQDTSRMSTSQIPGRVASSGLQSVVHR
# Experimental Details: Purified Enzyme Assay (ADP-Glo CSNK1D Kinase Assay)
# Condition Summary: 2 nM CSNK1D; peptide substrate 150 μM; ATP 20 μM; 45 minutes at room temperature
Measurement Label: pIC50
// field semantics: pIC50 = negative decimal log of concentration (mol/L)

Can you share its pIC50? I mean this compound: Cc1nc2[nH]ncc2c(-c2c(-c3ccc(F)cn3)nn3c2C[C@@H]2C[C@@H]23)c1F [Example 273] 8.70

Can you share its pIC50? I mean this compound: C[C@@]1(C(F)(F)F)Cn2nc(-c3ccc(F)cn3)c(-c3ccn4nccc4c3)c2CO1 (single isomer, unassigned) [Example 415] 6.58

Can you share its pIC50? I mean this compound: Fc1ccc(-c2nn3c(c2-c2ccnc4[nH]ncc24)COC(C(F)(F)F)C3)nc1 (stereo not shown) [Example 102] 7.41

Can you share its pIC50? I mean this compound: CC1(C)Cn2nc(-c3ccc(F)cn3)c(-c3ccnc4[nH]cc(C#N)c34)c2CO1 [Example 148] 7.23

Just for reference, patent US20230339970A1 is where these values come from.
